Known Retention_time of a selection of compounds
Test system: Blood
Experiment: Drug level in Homo sapiens (human) whole blood assessed as retention time by UPLC-TOF-MS analysis
Experimental Readout: Retention_time (min)

- CCN(C(C)=O)c1cccc(-c2ccnc3c(C#N)cnn23)c1: 5.68
- O=c1[nH]c2ccccc2n1C1CCN(CCCC(c2ccc(F)cc2)c2ccc(F)cc2)CC1 [PIMOZIDE]: 6.28
- CCOC(=O)[C@H](CCc1ccccc1)N[C@@H](C)C(=O)N1CCC[C@H]1C(=O)O: 5.23
- CC(N)Cc1ccc2c(c1)OCO2 (centres undefined): 2.7
- CNC1=Nc2ccc(Cl)cc2C(c2ccccc2)=[N+]([O-])C1 [CHLORDIAZEPOXIDE]: 4.94
- COc1ccc2c(c1)N(C[C@H](C)CN(C)C)c1ccccc1S2: 5.98
- CCC(=O)C(CC(C)N(C)C)(c1ccccc1)c1ccccc1 (centres undefined): 6.03
- Nc1ccc2c(c1)C(c1ccccc1)=NCC(=O)N2: 2.26
- CCCc1nc(C)c2c(=O)[nH]c(-c3cc(S(=O)(=O)N4CCN(CC)CC4)ccc3OCC)nn12: 5.17

---

Tested on: Blood
Experiment: Drug level in Homo sapiens (human) whole blood assessed as retention time by UPLC-TOF-MS analysis
Catalogue of Retention_time values
Experimental Readout: Retention_time (min)

• O=C1CN=C(c2ccccc2)c2cc([N+](=O)[O-])ccc2N1 [NITRAZEPAM] = 5.8
• COc1ccc2c(c1)[C@]13CCCC[C@@H]1[C@H](C2)N(C)CC3 [DEXTROMETHORPHAN] = 5.38
• CN(C)CCc1c[nH]c2ccccc12 = 2.89
• CCOc1ccccc1OC(c1ccccc1)C1CNCCO1 (stereo not given) [REBOXETINE] = 5.6
• O=C(CCCN1CCC(O)(c2ccc(Cl)cc2)CC1)c1ccc(F)cc1 [HALOPERIDOL] = 5.57
• CN1C(=O)C(O)N=C(c2ccccc2Cl)c2cc(Cl)ccc21 (stereo not given) [LORMETAZEPAM] = 6.41
• CN(C)CCCN1c2ccccc2CCc2ccccc21 [IMIPRAMINE] = 5.81
• CN(C)CCCC1(c2ccc(F)cc2)OCc2cc(C#N)ccc21 (stereo not given) [CITALOPRAM] = 5.53
• NCC1(CC(=O)O)CCCCC1 [GABAPENTIN] = 2.41
• CNC1(c2ccccc2Cl)CCCCC1=O (stereo not given) [KETAMINE] = 3.57

---

Tested on: Blood
Test: Drug level in Homo sapiens (human) whole blood assessed as retention time by UPLC-TOF-MS analysis
Decide using Retention_time alone. Strictly below 6 min: Condition met. Equal to or above 6 min: Condition not met.

- O=C1CN=C(c2ccccn2)c2cc(Br)ccc2N1 [BROMAZEPAM]: Condition met
- O=C1CC2(CCCC2)CC(=O)N1CCCCN1CCN(c2ncccn2)CC1 [BUSPIRONE]: Condition met
- CN(C)C(=O)C(CCN1CCC(O)(c2ccc(Cl)cc2)CC1)(c1ccccc1)c1ccccc1 [LOPERAMIDE]: Condition not met
- O=C1NCCN1CCN1CCC(c2cn(-c3ccc(F)cc3)c3ccc(Cl)cc23)CC1 [SERTINDOLE]: Condition not met
- CN[C@@H](C)Cc1ccccc1 [METHAMPHETAMINE]: Condition met
- C[C@@H](Cc1ccccc1)N(C)Cc1ccccc1 [BENZPHETAMINE]: Condition met
- CCOC(=O)C1(c2ccccc2)CCN(CCC(C#N)(c2ccccc2)c2ccccc2)CC1 [DIPHENOXYLATE]: Condition not met

---

System: Blood
Experiment: Drug level in Homo sapiens (human) whole blood assessed as retention time by UPLC-TOF-MS analysis
Experimental Readout: Retention_time (min)

* Fc1ccc([C@@H]2CCNC[C@H]2COc2ccc3c(c2)OCO3)cc1 | 5.66
* CCCCN1CCCCC1C(=O)Nc1c(C)cccc1C (stereo not given) | 5.08
* CN1C(=O)CC(=O)N(c2ccccc2)c2cc(Cl)ccc21 | 6.28
* CN1[C@H]2CC[C@@H]1[C@@H](C(=O)O)[C@@H](OC(=O)c1ccccc1)C2 | 3.48
* Cc1nnc2n1-c1ccc(Cl)cc1C(c1ccccc1)=NC2 | 6.09
* C(=C\c1ccccc1)/CN1CCN(C(c2ccccc2)c2ccccc2)CC1 | 6.57
* CN1CCN(C2=Nc3cc(Cl)ccc3Nc3ccccc32)CC1 | 5.1
* Cc1nnc2n1-c1ccc(Cl)cc1C(c1ccccc1Cl)=NC2 | 6.15
* COc1cccc(C2(O)CCCCC2CN(C)C)c1 (stereo not given) | 4.09
* CCC(=O)O[C@](Cc1ccccc1)(c1ccccc1)[C@H](C)CN(C)C | 5.98
* Cc1ncc2n1-c1ccc(Cl)cc1C(c1ccccc1F)=NC2 | 5.45
* O=C1CC(=O)N(c2ccccc2)c2cc(Cl)ccc2N1 | 5.61
* CCOC(=O)C1=C(COCCN)NC(C)=C(C(=O)OC)C1c1ccccc1Cl (stereo not given) | 5.94
* CC(C)NCC(O)COc1cccc2[nH]ccc12 (stereo not given) | 3
* CC(C)(C)NCC(O)c1cc(O)cc(O)c1 (stereo not given) | 1.93
* COc1ccc(CC(C)N)cc1 (stereo not given) | 2.91
* Cc1ccccc1C(OCCN(C)C)c1ccccc1 (stereo not given) | 5.75
* CCOC(=O)C1(c2ccccc2)CCN(C)CC1 | 4.68
* Clc1cccc(Cl)c1N=C1NCCN1 | 2.44
* COc1ccc2c3c1O[C@H]1[C@@H](O)C=C[C@H]4[C@@H](C2)N(C)CC[C@@]341 | 2.5
* CCN(CC)C(=O)[C@@H]1C=C2c3cccc4[nH]cc(c34)C[C@H]2N(C)C1 [LYSERGIDE] | 4.88
* CN1CC[C@]23CCCC[C@H]2[C@H]1Cc1ccc(O)cc13 | 3.82
* COC(=O)C1=C(C)NC(C)=C(C(=O)OC)C1c1ccccc1[N+](=O)[O-] | 6.4
* NC1=Nc2ccc(Cl)cc2C(c2ccccc2)=[N+]([O-])C1 | 4.85
* O=C(NCCN1CCOCC1)c1ccc(Cl)cc1 [MOCLOBEMIDE] | 3.39
* CN1CCN=C(c2ccccc2)c2cc(Cl)ccc21 | 5.45
* CN(C)CC/C=C1/c2ccccc2Sc2ccc(Cl)cc21 | 6.18
* CN[C@H]1CC[C@@H](c2ccc(Cl)c(Cl)c2)c2ccccc21 | 6.04
* CCOC(=O)c1ncn2c1CN(C)C(=O)c1cc(F)ccc1-2 | 5.13
* Cc1ccc(/C(=C\CN2CCCC2)c2cccc(/C=C/C(=O)O)n2)cc1 | 5.64
* CC(C)NCC(O)COc1cccc2ccccc12 (stereo not given) | 5.28
* CN(C)C(=O)Oc1cc(OC(=O)N(C)C)cc(C(O)CNC(C)(C)C)c1 (stereo not given) | 4.84
* O=C(NCC1CCCCN1)c1cc(OCC(F)(F)F)ccc1OCC(F)(F)F (stereo not given) [FLECAINIDE] | 5.58
* CC(CCc1ccccc1)NCC(O)c1ccc(O)c(C(N)=O)c1 (stereo not given) | 4.95
* O=C1Nc2ccc(Cl)cc2C(c2ccccc2Cl)=NC1O (stereo not given) | 6.02
* CN1CC[C@]23c4c5ccc(O)c4O[C@H]2C(=O)CC[C@@]3(O)[C@H]1C5 | 1.78
* Cc1ccc(-c2nc3ccc(C)cn3c2CC(=O)N(C)C)cc1 | 4.78
* CC(=O)c1ccc2c(c1)N(CCCN(C)C)c1ccccc1S2 | 5.67
* C=CCN1CC[C@]23c4c5ccc(O)c4O[C@H]2C(=O)CC[C@@]3(O)[C@H]1C5 | 2.46
* c1cc2c(c(N3CCNCC3)c1)OCCO2 | 4.9

---

Test system: Blood
Test: Drug level in Homo sapiens (human) whole blood assessed as retention time by UPLC-TOF-MS analysis
Experimental Readout: Retention_time (min)

- COc1cc(CCN)c(OC)cc1Br: 4.52
- COc1ccc(N2CCNCC2)cc1: 2.59
- COCCOC(=O)C1=C(C)NC(C)=C(C(=O)OC(C)C)C1c1cccc([N+](=O)[O-])c1 (stereo not given): 7.14
- CCN(CC)CCN1C(=O)CN=C(c2ccccc2F)c2cc(Cl)ccc21: 5.53
- CN(C)CCC=C1c2ccccc2COc2ccccc21 [DOXEPIN]: 5.59
- CCN1CCCC1CNC(=O)c1cc(S(N)(=O)=O)ccc1OC (stereo not given) [SULPIRIDE]: 2.21
- Cc1cccc(C)c1NC(=O)C1CCCCN1C (stereo not given) [MEPIVACAINE]: 3.46
- COc1cc2nc(N3CCN(C(=O)C4COc5ccccc5O4)CC3)nc(N)c2cc1OC (stereo not given): 5.43
- Cc1ccccc1-n1c(C)nc2ccccc2c1=O: 6.02
- COc1ccc(CN(CCN(C)C)c2ccccn2)cc1: 4.57

---

Test system: Blood
Assay: Drug level in Homo sapiens (human) whole blood assessed as retention time by UPLC-TOF-MS analysis
This section presents compounds with their documented Retention_time values.
Experimental Readout: Retention_time (min)

* CN1CCN2c3ncccc3Cc3ccccc3C2C1 (stereo not drawn) | 3.91
* C[C@H](N)C(=O)c1ccccc1 | 2.09
* CCOC(=O)c1ccc(N)cc1 | 5.15
* O=C1C[N+]([O-])=C(c2ccccc2)c2cc(Cl)ccc2N1 | 5.62
* CCN(CC)CCNC(=O)c1cc(Cl)c(N)cc1OC [METOCLOPRAMIDE] | 3.64
* COc1ccc([C@@H]2Sc3ccccc3N(CCN(C)C)C(=O)[C@@H]2OC(C)=O)cc1 | 5.63
* CN1CCC[C@@H]1Cc1c[nH]c2ccc(CCS(=O)(=O)c3ccccc3)cc12 | 5.21
* CCC(Cc1ccc2c(c1)OCO2)NC (stereo not drawn) | 3.61
* CC(C)NCC(O)COc1ccc(COCCOC(C)C)cc1 (stereo not drawn) | 5.06
* CCN(CC)C(C)C(=O)c1ccccc1 (stereo not drawn) | 3.05
* Clc1cccc(N2CCNCC2)c1 | 4.08
* COc1cc(CCN)cc(OC)c1OC | 2.77
* CCCCc1nc(Cl)c(CO)n1Cc1ccc(-c2ccccc2-c2nn[nH]n2)cc1 | 6.09
* CN1CCN(C(c2ccccc2)c2ccccc2)CC1 | 5.52
* c1ccc(C2(N3CCCCC3)CCCCC2)cc1 | 5.23
* OCCOCCN1CCN(C2=Nc3ccccc3Sc3ccccc32)CC1 | 5.35
* OC(CCN1CCCCC1)(c1ccccc1)C1CC2C=CC1C2 (stereo not drawn) | 5.78
* CN(C)CCc1c[nH]c2ccc(C[C@H]3COC(=O)N3)cc12 | 2.7
* CNCCC(Oc1ccc(C(F)(F)F)cc1)c1ccccc1 (stereo not drawn) | 6.08
* Fc1ccccc1C1=NCC(=S)N(CC(F)(F)F)c2ccc(Cl)cc21 | 7.59
* CC1Cc2ccccc2N1NC(=O)c1ccc(Cl)c(S(N)(=O)=O)c1 (stereo not drawn) [INDAPAMIDE] | 5.79
* Nc1ccc2c(c1)C(c1ccccc1Cl)=NCC(=O)N2 | 3.39
* O=C1CN=C(c2ccccc2Cl)c2cc(Br)ccc2N1 | 6.45
